Target Under Test: human D3 receptor (CHO-D3R) (Homo sapiens, UniProt P35462)
Sequence (P35462 whole entry): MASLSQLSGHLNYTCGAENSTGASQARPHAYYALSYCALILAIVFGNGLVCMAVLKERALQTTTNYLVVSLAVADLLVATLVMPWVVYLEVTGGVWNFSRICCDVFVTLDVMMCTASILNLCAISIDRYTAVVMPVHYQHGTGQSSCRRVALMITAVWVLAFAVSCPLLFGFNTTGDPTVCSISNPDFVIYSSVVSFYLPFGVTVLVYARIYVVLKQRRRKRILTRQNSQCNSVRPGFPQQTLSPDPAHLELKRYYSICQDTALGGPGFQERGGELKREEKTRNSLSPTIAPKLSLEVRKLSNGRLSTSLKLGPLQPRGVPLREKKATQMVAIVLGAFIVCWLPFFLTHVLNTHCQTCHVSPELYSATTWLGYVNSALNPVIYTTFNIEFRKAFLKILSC
Protocol: ERK1/2 phosphorylation
Assay type: cell-based
Measurement Context: read-out: ERK1/2 phosphorylation EC50; CHO-D3R cells treated 5 min at 37 °C
Quantity: EC50

EC50 measured on CCCN1CCO[C@@H]2c3cc(O)ccc3OC[C@H]21 = 7.1 nM

* * *

Target Under Test: human D2 receptor (CHO-D2R) (Homo sapiens, UniProt P14416)
Sequence (P14416 whole entry): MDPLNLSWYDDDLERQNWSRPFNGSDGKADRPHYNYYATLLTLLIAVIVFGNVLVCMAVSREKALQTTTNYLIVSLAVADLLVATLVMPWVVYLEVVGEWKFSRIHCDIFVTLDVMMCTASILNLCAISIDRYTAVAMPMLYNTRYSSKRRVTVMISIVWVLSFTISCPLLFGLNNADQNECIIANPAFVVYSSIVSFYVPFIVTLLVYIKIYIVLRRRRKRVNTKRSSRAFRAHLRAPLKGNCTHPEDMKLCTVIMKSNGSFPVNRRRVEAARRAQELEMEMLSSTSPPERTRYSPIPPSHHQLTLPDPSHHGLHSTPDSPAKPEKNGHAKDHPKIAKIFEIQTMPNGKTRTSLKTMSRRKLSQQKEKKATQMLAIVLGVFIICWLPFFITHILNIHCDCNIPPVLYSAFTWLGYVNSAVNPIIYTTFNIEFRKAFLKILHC
Protocol: Agonist-induced [35S]GTPγS binding to CHO-D2R membranes
Measurement Context: read-out: [35S]GTPγS binding EC50; D2R (CHO-D2R membranes)
Quantity: pEC50
Just so you know, pEC50 here is -log10 of the concentration in molar units; reply with that number alone.

Item: CCCN1CCO[C@@H]2c3cc(O)ccc3OC[C@H]21 | System: human D2 receptor (CHO-D2R) (Homo sapiens, UniProt P14416) | pEC50: 6.99
